Test system: SW-620
PROCEDURE TEXT: NCI tumour cell line growth inhibition, 48 h
The source made the active and inactive calls. Rule as the data show it: active = GI50 up to about 1.1 µM and inactive = higher.
ASSAY ENDPOINT: GI50

Study these solved cases before continuing.
COc1cc(C(=O)O[C@@H]2[C@@H](OC(=O)c3cc(OC)c(OC)c(OC)c3)[C@@H](OC)O[C@@H]3CO[C@@H](c4ccccc4)O[C@@H]23)cc(OC)c1OC; > 100 µM (inactive)
COc1cc(/C=C/C(=O)C(C)(C)C)cc(OC)c1OC; 32.7 µM (inactive)
Cc1ccc(Nc2n[nH]c(NS(=O)(=O)c3cc(C(=O)Nc4ccc(Cl)cc4)c(Cl)cc3S)n2)cc1; > 100 µM (inactive)
COC(=O)C1CCC(=O)N1C(c1ccccc1)c1cc(OC)c(OC)c(OC)c1 (centres undefined); 46.7 µM (inactive)
C=CC[P@]1(=O)O[C@H](c2ccccc2)C(C)N1C(C)C (some centres undefined); > 100 µM (inactive)
CN(C)CCCNc1ccc([N+](=O)[O-])c2nc3ccccc3c(N)c12; 0.22 µM (active)
CN(C)c1ccc(/C(Br)=C2\OC(=O)c3ccccc32)cc1; 93.5 µM (inactive)
O=[N+]([O-])c1ccc(N2CCC(CCCC3CCN(c4ccc([N+](=O)[O-])cc4[N+](=O)[O-])CC3)CC2)c([N+](=O)[O-])c1; 19.9 µM (inactive)

# input for lookup
-- ask # input compound: CCC(C)NC(=S)N/N=C(\C)c1ccccn1 (centres undefined) ; wanted: its GI50
-- reply < 0.0132 µM (active)
